Where do these numbers come from? They come from patent US8895695B2.

# tested_target: CXCR4 (Homo sapiens, UniProt P61073)
# Sequence (P61073 whole entry): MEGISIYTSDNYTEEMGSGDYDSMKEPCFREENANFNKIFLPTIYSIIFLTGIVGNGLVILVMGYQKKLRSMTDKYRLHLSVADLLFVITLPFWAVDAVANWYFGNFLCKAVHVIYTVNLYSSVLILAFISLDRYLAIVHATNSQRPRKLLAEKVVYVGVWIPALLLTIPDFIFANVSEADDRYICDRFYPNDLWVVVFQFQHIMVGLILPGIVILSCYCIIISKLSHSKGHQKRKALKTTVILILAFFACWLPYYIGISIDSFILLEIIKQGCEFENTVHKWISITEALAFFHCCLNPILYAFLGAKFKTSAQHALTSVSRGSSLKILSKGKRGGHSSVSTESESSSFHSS
# procedure_details: Ca2+-assay method 2 (Flexstation, SDF-1 induced calcium mobilization)
# Format: cell-based
# Design: expressed in transfected cells; host or cells: mouse pre-B cell line 300-19
# recorded_conditions: method 2 (Ex. 54-160), mouse pre-B cell line 300-19 with human CXCR4, 10 nM SDF-1; read-out: IC50 (nM) Ca^2+ assay
Bridge positions count the residues as written; N and C are the ends. Square brackets hold non-standard residues; d marks the D form. Peptide text beside a SMILES is read from it. Cit = NC(=O)NCCC[C@H](N)C(=O)O; Orn = NCCC[C@H](N)C(=O)O
measurement_kind: IC50 (nM)
Answer in nM, number only, no unit symbol.

Prompt line: Look at this compound and give its reported IC50. N=C(N)NCCC[C@@H]1NC(=O)[C@@H]2CSSC[C@H](NC(=O)[C@H](Cc3c[nH]c4ccccc34)NC(=O)[C@H](CCCN)NC(=O)[C@H](CCCNC(=N)N)NC(=O)[C@H]3CCCN3C(=O)CNC1=O)C(=O)N[C@@H](Cc1ccc(O)cc1)C(=O)N[C@@H](CCCNC(N)=O)C(=O)N[C@@H](CCCCN)C(=O)N1CCC[C@@H]1C(=O)N1CCC[C@H]1C(=O)N[C@@H](Cc1ccc(O)cc1)C(=O)N[C@@H](CCCNC(=N)N)C(=O)N[C@@H](CCCNC(N)=O)C(=O)N2 [Ex. 117] (cyclo(YR[Cit]CRG[dP]R[Orn]WCY[Cit]K[dP]P); disulfide 4-11)
Response line: 3.4

====

# tested_target: CXCR4 (Homo sapiens, UniProt P61073)
# procedure_details: Ca2+-assay method 2 (Flexstation, SDF-1 induced calcium mobilization)
# Format: cell-based
# Parameters: expressed in transfected cells; host or cells: mouse pre-B cell line 300-19
# recorded_conditions: method 2 (Ex. 54-160), mouse pre-B cell line 300-19 with human CXCR4, 10 nM SDF-1; read-out: IC50 (nM) Ca^2+ assay
Bridge positions count the residues as written; N and C are the ends. Square brackets hold non-standard residues; d marks the D form. Peptide text beside a SMILES is read from it. 2Nal = N[C@@H](Cc1ccc2ccccc2c1)C(=O)O; Cit = NC(=O)NCCC[C@H](N)C(=O)O
Listed below: IC50 values for each entry.
// return numeric value only (unit: nM, not printed)

[
  {
    "compound": "N=C(N)NCCC[C@@H]1NC(=O)[C@@H]2CSSC[C@H](NC(=O)[C@H](Cc3c[nH]c4ccccc34)NC(=O)[C@H](CCCNC(=N)N)NC(=O)[C@H](CCCNC(=N)N)NC(=O)[C@H]3CCCN3C(=O)CNC1=O)C(=O)N[C@@H](Cc1ccc(O)cc1)C(=O)N[C@@H](CCCNC(N)=O)C(=O)N[C@@H](CCCCN)C(=O)N1CCC[C@@H]1C(=O)N1CCC[C@H]1C(=O)N[C@@H](Cc1ccc(O)cc1)C(=O)N[C@@H](Cc1c[nH]cn1)C(=O)N[C@@H](CCCNC(N)=O)C(=O)N2 [Ex. 105] (cyclo(YH[Cit]CRG[dP]RRWCY[Cit]K[dP]P); disulfide 4-11)",
    "tested_target": "CXCR4 (Homo sapiens, UniProt P61073)",
    "unit_spec": "nM",
    "IC50": 0.62
  }
]

Prompt line: Entry N=C(N)NCCC[C@@H]1NC(=O)[C@@H]2CSSC[C@H](NC(=O)[C@H](Cc3c[nH]c4ccccc34)NC(=O)[C@H](CCCNC(=N)N)NC(=O)[C@H](CCCNC(=N)N)NC(=O)[C@H]3CCCN3C(=O)CNC1=O)C(=O)N[C@@H](Cc1ccc(O)cc1)C(=O)N[C@@H](CCCNC(N)=O)C(=O)N[C@@H](CCCCN)C(=O)N1CCC[C@@H]1C(=O)N1CCC[C@H]1C(=O)N[C@@H](Cc1ccc(O)cc1)C(=O)N[C@@H](CCCNC(=N)N)C(=O)N[C@@H](CCCNC(N)=O)C(=O)N2 [Ex. 123] (cyclo(YR[Cit]CRG[dP]RRWCY[Cit]K[dP]P); disulfide 4-11) has what IC50?
Response line: 10

Prompt line: Please do the same for N=C(N)NCCC[C@@H]1NC(=O)[C@@H]2CSSC[C@H](NC(=O)[C@H](Cc3ccc(O)cc3)NC(=O)[C@H](CCCNC(=N)N)NC(=O)[C@H](CCCNC(=N)N)NC(=O)[C@H]3CCCN3C(=O)CNC1=O)C(=O)N[C@@H](Cc1ccc(O)cc1)C(=O)N[C@@H](CCC(N)=O)C(=O)N[C@@H](CCCCN)C(=O)N1CCC[C@@H]1C(=O)N1CCC[C@H]1C(=O)N[C@@H](Cc1ccc(O)cc1)C(=O)N[C@@H](CCCNC(=N)N)C(=O)N[C@@H](Cc1ccc(O)cc1)C(=O)N2 [Ex. 148] (cyclo(YRYCRG[dP]RRYCYQK[dP]P); disulfide 4-11) as well.
Response line: 0.65

Prompt line: Repeat with N=C(N)NCCC[C@@H]1NC(=O)[C@@H]2CSSC[C@H](NC(=O)[C@H](Cc3ccc4ccccc4c3)NC(=O)[C@H](CCCNC(=N)N)NC(=O)[C@H](CCCNC(=N)N)NC(=O)[C@H]3CCCN3C(=O)CNC1=O)C(=O)N[C@@H](Cc1ccc(O)cc1)C(=O)N[C@@H](CO)C(=O)N[C@@H](CCCCN)C(=O)N1CCC[C@@H]1C(=O)N1CCC[C@H]1C(=O)N[C@@H](Cc1ccc(O)cc1)C(=O)N[C@@H](CCCNC(=N)N)C(=O)N[C@@H](CCCNC(N)=O)C(=O)N2 [Ex. 81] (cyclo(YR[Cit]CRG[dP]RR[2Nal]CYSK[dP]P); disulfide 4-11)
Response line: 4.9
